assay system: human TrkA (Homo sapiens, UniProt P04629)
Construct: purchased Lifetechnologies PV3144
Sequence (P04629 33-796): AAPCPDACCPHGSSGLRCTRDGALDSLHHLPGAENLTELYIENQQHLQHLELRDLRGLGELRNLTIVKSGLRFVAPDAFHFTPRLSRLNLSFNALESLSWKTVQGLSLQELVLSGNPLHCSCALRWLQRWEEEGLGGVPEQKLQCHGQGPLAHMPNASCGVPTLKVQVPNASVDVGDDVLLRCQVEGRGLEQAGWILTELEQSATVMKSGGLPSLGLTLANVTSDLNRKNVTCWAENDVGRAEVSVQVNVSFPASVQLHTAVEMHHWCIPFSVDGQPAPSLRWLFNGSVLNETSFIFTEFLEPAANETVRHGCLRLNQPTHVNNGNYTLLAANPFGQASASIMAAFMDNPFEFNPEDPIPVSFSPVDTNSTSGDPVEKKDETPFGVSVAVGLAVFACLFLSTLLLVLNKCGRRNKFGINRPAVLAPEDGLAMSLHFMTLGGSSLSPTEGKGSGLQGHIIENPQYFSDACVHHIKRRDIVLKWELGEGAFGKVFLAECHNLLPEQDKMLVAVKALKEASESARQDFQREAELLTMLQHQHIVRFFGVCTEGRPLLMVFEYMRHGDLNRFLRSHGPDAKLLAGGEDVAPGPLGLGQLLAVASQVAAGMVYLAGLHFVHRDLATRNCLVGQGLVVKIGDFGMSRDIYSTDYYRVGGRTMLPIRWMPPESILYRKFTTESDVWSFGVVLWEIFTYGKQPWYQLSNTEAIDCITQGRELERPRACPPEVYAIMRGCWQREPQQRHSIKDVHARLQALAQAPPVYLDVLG
procedure summary: Test Example 2-2: Human TrkA Inhibition Assay
Format: biochemical
assay conditions: human TrkA 1 nmol/L, 120 min at 37° C., read-out: TrkA inhibition IC50
Description: Seven point five μL per well of human TrkA (PV3144, Lifetechnologies, final concentration: 1 nmol/L) suspended in the assay buffer (100 mmol/L 4-(2-hydroxyethyl)-1-piperazineethanesulfonic acid (HEPES), 10 mmol/L magnesium chloride, 0.003 vol % Brij-35, 0.004 vol % Tween20 and 1 mmol/L dithiothreitol (DTT)) was applied in a 384 well plate and the plate was pre-incubated for 15 min at room temperature with 0.4 μL of each compound (final concentration: 200 mmol/L-0.1 nmol/L) dissolved in DMSO. […]
The label is T for IC50 below 2 nM and F for IC50 equal to or exceeding 2 nM.

INSERT INTO assay_data (compound, group_label) VALUES
  ('COCCN1C[C@@H](NC(=O)Nc2c(C)c(-c3cnn(C)c3)nn2-c2ccccc2)[C@H](C2=CCCCC2)C1 (racemic) [Compound I-218]', 'F'),
  ('COCC[C@@H]1C[C@@H](NC(=O)Nc2c(C)c(-c3cnn(C)c3)nn2-c2ccccc2)[C@H](c2ccccc2)C1 [Compound I-84]', 'T'),
  ('Cc1c(-c2cnn(C)c2)nn(-c2ccccc2)c1NC(=O)N[C@@H]1CN(Cc2ccc(Br)o2)C[C@H]1c1ccc(F)c(F)c1 [Compound I-190]', 'T'),
  ('CNC(=O)C(COC)N1C[C@@H](NC(=O)Nc2c(C)c(-c3cnn(C)c3)nn2-c2ccccc2)[C@H](c2ccc(F)c(F)c2)C1 (stereo partly drawn) [Compound I-109]', 'F'),
  ('Cc1c(-c2cnn(C)c2)nn(-c2ccccc2)c1NC(=O)N[C@@H]1CN(Cc2ccco2)C[C@H]1c1ccc(F)c(F)c1 [Compound I-86]', 'T'),
  ('COCCN1C[C@@H](NC(=O)Nc2c(C)c(-c3cnn(C)c3)nn2-c2ccccc2)[C@H](c2ccc3nonc3c2)C1 (racemic) [Compound I-209]', 'F');

---

assay system: human TrkA (Homo sapiens, UniProt P04629)
Construct: purchased Lifetechnologies PV3144
procedure summary: Test Example 2: Human TrkA Inhibition Assay
Type: biochemical
assay conditions: human TrkA inhibition, Test Example 2; class symbols A/B/C; read-out: IC50_nM
assay readout: IC50

INSERT INTO measurements (compound, result) VALUES
  ('COCCC(=O)N1C[C@@H](NC(=O)Nc2c(C)c(-c3cnn(C)c3)nn2-c2ccccc2)[C@H](c2ccc(F)c(F)c2)C1', '> 1 µM'),
  ('CCOC1CC(N2C[C@@H](NC(=O)Nc3c(C)c(-c4cnn(C)c4)nn3-c3ccccc3)[C@H](c3ccc(F)c(F)c3)C2)C1 (stereo partly drawn)', '> 1 µM'),
  ('Cc1c(-c2cnn(C)c2)nn(-c2ccccc2)c1NC(=O)N[C@@H]1CN(CCS(C)(=O)=O)C[C@H]1c1ccc(F)c(F)c1', '> 1 µM');

---

assay system: human TrkA (Homo sapiens)
Construct: purchased Lifetechnologies PV3144
procedure summary: Test Example 2: Human TrkA Inhibition Assay
Format: biochemical
assay conditions: human TrkA inhibition, Test Example 2; class symbols A/B/C; read-out: IC50_nM
assay readout: IC50

INSERT INTO measurements (compound, assay_readout, result) VALUES
  ('CCON=C1C[C@@H](NC(=O)Nc2c(C)c(-c3cnn(C)c3)nn2-c2ccccc2)[C@H](c2ccccc2)C1', 'IC50', '0.1 to 1 µM'),
  ('Cc1c(-c2cnn(C)c2)nn(-c2ccccc2)c1NC(=O)N[C@@H]1CN(Cc2cscn2)C[C@H]1c1ccc(F)c(F)c1', 'IC50', '< 0.1 µM'),
  ('COCC(CN1CCOCC1)N1C[C@@H](NC(=O)Nc2c(C)c(-c3cnn(C)c3)nn2-c2ccccc2)[C@H](c2ccc(F)c(F)c2)C1 (some centres unmarked)', 'IC50', '> 1 µM'),
  ('COCCN1C[C@@H](NC(=O)C(O)c2c(C)c(-c3cnn(C)c3)nn2-c2ccccc2)[C@H](c2ccc(F)c(F)c2)C1 (some centres unmarked)', 'IC50', '0.1 to 1 µM'),
  ('COC1CCCCC1N1C[C@@H](NC(=O)Nc2c(C)c(-c3cnn(C)c3)nn2-c2ccccc2)[C@H](c2ccc(F)c(F)c2)C1 (some centres unmarked)', 'IC50', '> 1 µM'),
  ('COCC(C(=O)N(C)C)N1C[C@@H](NC(=O)Nc2c(C)c(-c3cnn(C)c3)nn2-c2ccccc2)[C@H](c2ccc(F)c(F)c2)C1 (some centres unmarked) [Compound I-174]', 'IC50', '> 1 µM'),
  ('COCC(C(N)=O)N1C[C@@H](NC(=O)Nc2c(C)c(-c3cnn(C)c3)nn2-c2ccccc2)[C@H](c2ccc(F)c(F)c2)C1 (some centres unmarked) [Compound I-133]', 'IC50', '0.1 to 1 µM'),
  ('Cc1c(-c2cnn(C)c2)nn(-c2ccccc2)c1NC(=O)N[C@@H]1CN(CCc2ccccc2)C[C@H]1c1ccc(F)c(F)c1', 'IC50', '> 1 µM');
